biological target: recombinant human CB1 receptor (Homo sapiens); experiment: Cannabinoid Receptor-1 (CB1) Binding Assay ([3H]CP-55940 displacement); conditions: recombinant human CB1 in CHO cell membranes, 0.6 nM [3H]CP-55940
Sequence (P21554 whole entry): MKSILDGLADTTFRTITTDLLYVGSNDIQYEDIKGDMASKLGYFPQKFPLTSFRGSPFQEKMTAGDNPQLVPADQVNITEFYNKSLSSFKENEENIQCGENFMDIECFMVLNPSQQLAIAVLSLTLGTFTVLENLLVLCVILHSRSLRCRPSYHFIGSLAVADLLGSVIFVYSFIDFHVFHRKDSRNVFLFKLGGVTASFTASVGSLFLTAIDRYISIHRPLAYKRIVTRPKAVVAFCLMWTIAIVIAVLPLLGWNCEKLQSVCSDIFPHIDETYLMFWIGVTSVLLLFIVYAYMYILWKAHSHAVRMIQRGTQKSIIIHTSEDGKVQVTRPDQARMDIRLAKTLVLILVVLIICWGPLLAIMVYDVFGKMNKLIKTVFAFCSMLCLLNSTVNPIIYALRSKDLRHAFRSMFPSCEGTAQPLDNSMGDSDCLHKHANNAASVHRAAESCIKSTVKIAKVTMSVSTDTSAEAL
For each entry below, report its log10 of IC50 value.
Form field - Quantity: IC50; Unit: nM; Scale: log10

structure=CC(C)(C)c1nc2nc(-c3ccc(-c4cn[nH]c4)cc3Cl)c(-c3ccc(Cl)cc3)cc2c(=O)[nH]1 recorded_measurement=1.00
structure=CC(C)(C)Nc1nc(C(C)(C)C)nc2nc(-c3ccccc3Cl)c(-c3ccc(Cl)cc3)cc12 recorded_measurement=0.48
structure=CC(C)(C)c1nc(NCC(F)(F)F)c2cc(-c3ccc(Br)cc3)c(-c3ccccc3Cl)nc2n1 recorded_measurement=0.30
structure=CC(C)(C)c1nc(N)c2cc(-c3ccc(Cl)cc3)c(-c3ccc(Cl)cc3Cl)nc2n1 recorded_measurement=1.04
structure=CC(C)(C)c1nc2nc(-c3ccccc3Cl)c(-c3ccc(Cl)cc3)cc2c(=O)[nH]1 recorded_measurement=0.85

Please supply log10 of IC50 for each of the following items, keeping them in order.
1. CC(C)(C)c1nc(-c2ccc(F)cc2)c2cc(-c3ccc(Cl)cc3)c(-c3ccccc3Cl)nc2n1
2. CC(C)(C)c1nc(C#N)c2cc(-c3ccc(C#N)cc3)c(-c3ccccc3Cl)nc2n1

[-0.22, 0.30]

Look up log10 of IC50: `Cn1c(-c2ccc(Cl)cc2)nc2nc(-c3ccccc3Cl)c(-c3ccc(Cl)cc3)cc2c1=O`
0.60
